tested-on: EP4 (Homo sapiens)
Sequence (P35408 whole entry): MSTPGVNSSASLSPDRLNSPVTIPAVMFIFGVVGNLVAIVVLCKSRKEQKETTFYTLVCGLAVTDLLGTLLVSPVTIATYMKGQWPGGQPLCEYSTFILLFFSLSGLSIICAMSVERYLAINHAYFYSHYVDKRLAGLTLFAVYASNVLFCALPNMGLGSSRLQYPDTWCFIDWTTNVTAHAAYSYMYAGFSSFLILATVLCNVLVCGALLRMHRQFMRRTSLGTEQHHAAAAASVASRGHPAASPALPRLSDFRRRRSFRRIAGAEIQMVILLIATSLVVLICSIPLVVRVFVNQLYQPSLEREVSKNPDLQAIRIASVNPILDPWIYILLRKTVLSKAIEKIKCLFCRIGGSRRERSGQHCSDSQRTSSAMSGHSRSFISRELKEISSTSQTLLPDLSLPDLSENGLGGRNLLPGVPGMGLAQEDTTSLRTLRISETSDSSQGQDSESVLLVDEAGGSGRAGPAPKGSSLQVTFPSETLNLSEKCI
measured-parameter: pKi
Remember the convention: pKi equals -log10 of concentration in molar.

input: Return pKi measured with EP4 (Homo sapiens) given this compound: CCCCCC(=O)c1ccc([C@@H]2[C@@H](C/C=C\CCCC(=O)O)[C@H](Cl)C[C@H]2O)cc1 [drawing 41]
output: 5.55

====

tested-on: EP2 (Homo sapiens, UniProt P43116)
Sequence (P43116 whole entry): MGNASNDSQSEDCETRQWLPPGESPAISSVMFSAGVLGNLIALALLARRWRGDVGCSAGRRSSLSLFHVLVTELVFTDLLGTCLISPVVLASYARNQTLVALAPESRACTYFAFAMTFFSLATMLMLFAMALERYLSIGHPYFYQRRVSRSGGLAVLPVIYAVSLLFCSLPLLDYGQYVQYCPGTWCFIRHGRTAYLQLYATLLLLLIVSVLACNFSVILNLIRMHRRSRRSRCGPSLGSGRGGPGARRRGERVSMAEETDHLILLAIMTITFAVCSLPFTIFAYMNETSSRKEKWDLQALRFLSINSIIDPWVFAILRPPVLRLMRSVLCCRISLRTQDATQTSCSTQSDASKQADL
measured-parameter: Ki (nM)
Answer format: numeric, nM implied, no suffix.

input: What value of measured Ki is listed for CCCCCC(=O)c1ccc([C@@H]2[C@@H](C/C=C\CCCC(=O)O)[C@H](Cl)C[C@H]2O)cc1 [drawing 41] ?
output: 111

The reported measurements were obtained from patent US7476755B2.
